We begin with a simple list: items and their reported GI50.
Tested on: ACHN
Test: NCI tumour cell line growth inhibition, 48 h
Activity calls are given as the source filed them. No stated cut-off is given here; in the data, active = GI50 up to about 1.1 µM and inactive = higher.

Need GI50 of CC(C)(C)[Si](C)(C)OC1(CCc2ccccc2OS(=O)(=O)C(F)(F)F)CCCC=C1COCc1ccccc1 (stereo not given) , thanks. 35.4 µM (inactive)

And CC(=O)C1=C(C)N(c2ccc(C)cc2)C2(O)C3=C(C(=O)c4ccccc4C3=O)C(O)=CC12Cl (stereo not given) ? 15.4 µM (inactive)

And `CCN(CC)CC[n+]1ccc2c(C)c3[nH]c4ccccc4c3c(C)c2c1` ? 5 µM (inactive)

And `Cc1ccc(N2CCC3(CC2)OCCO3)cc1` ? > 100 µM (inactive)

And N#CC1=C(N)OC2=C(CCCc3ccc([N+](=O)[O-])cc32)C1c1ccc(Cl)cc1 (stereo not given) ? 4.59 µM (inactive)

And CC1=C(C)CC2C(=O)N(c3cc(C(C)(C)C)ccc3C(C)(C)C)C(=O)C2C1 (stereo not given) ? 5.38 µM (inactive)

And `COc1cc(OCc2ccccc2)c2c(CCC(=O)O)cc(=O)oc2c1.COc1cc(OCc2ccccc2)cc2oc(=O)cc(CCC(=O)O)c12` ? 37.5 µM (inactive)

And `CC(C)(C)c1cc(Cc2ccc(S(C)(=O)=O)cc2)c(O)c(C(C)(C)C)c1` ? 13.7 µM (inactive)

And `CC1(C)OCC=CCO1` ? > 100 µM (inactive)

And `COc1cc2c(cc1OC)c1c(OC)c(OC)cc3c1c1c2sc(=S)n1CC3` ? > 100 µM (inactive)
